Cited source: BigSolDB 2.1

# condition.notes: in isopropanol, 273.15 K
metric.name: solubility (mole fraction)
Hey, just send me the number, nothing else.

q: Answer with the recorded solubility (mole fraction) for the compound listed here: O=c1[nH]c(=O)n(C2CCCO2)cc1F (stereo unspecified)
a: 0.00086

* * *

# condition.notes: in isopropanol, 293.15 K
metric.name: solubility (mole fraction)

q: Answer with the recorded solubility (mole fraction) for the compound listed here: O=c1[nH]c(=O)n(C2CCCO2)cc1F (stereo unspecified)
a: 0.00227

* * *

# condition.notes: in methanol, 273.15 K
metric.name: solubility (mole fraction)
Hey, just send me the number, nothing else.

q: Answer with the recorded solubility (mole fraction) for the molecule listed here: O=c1[nH]c(=O)n(C2CCCO2)cc1F (stereo unspecified)
a: 0.00362
